Quick reference: melting point of the listed items.
quantityKind: melting point

- molecule: "CC[C@@]1(CC(=O)N[C@@H](C)c2ccccc2)CCCN2CCc3c([nH]c4ccccc34)[C@@H]21"
  measuredValue: "188 to 192 °C"
- molecule: "N#Cc1ccccc1-c1ccc(CC(NC(=O)Nc2ccccc2S(=O)(=O)N2CCCCC2)C(=O)O)cc1 (centres undefined)"
  measuredValue: "140 °C"
- molecule: "Cc1ccc(CN[C@H](CO)Cc2ccccc2)cc1"
  measuredValue: "125 to 127 °C"
- molecule: "N#CCc1cc2ccccc2s1"
  measuredValue: "59 to 61 °C"
- molecule: "COC(=O)c1ccc(C(=O)Nc2sc3c(c2C(=O)NCc2ccc4c(c2)OCO4)CCCC3)cc1"
  measuredValue: "138 °C"
- molecule: "CNC(=O)NS(=O)(=O)c1cc(CCNC(=O)/C=C/c2cccs2)ccc1OC"
  measuredValue: "120 °C"
- molecule: "O=C(O)CCC/C=C\\[C@@H]1C[C@@H](NS(=O)(=O)c2ccccc2)CN1S(=O)(=O)c1ccc(Cl)cc1"
  measuredValue: "121 to 123 °C"
- molecule: "NC(=O)N(O)Cc1ccc(OCc2ccccc2)cc1"
  measuredValue: "147 to 149 °C"
- molecule: "Brc1ccc(-c2ccc(Br)cc2-c2nc3ccccc3[nH]2)c(-c2nc3ccccc3[nH]2)c1"
  measuredValue: "326 to 328 °C"

Values compiled from a melting point compilation (Tetko et al.; mined from patent text by program, amines drawn as free bases though some values may be those of a salt).
